Data origin: patent US11319299B2

# Target System: UniProt P61964
# Protocol Notes: Surface Plasmon Resonance (SPR) assay, KD and residence time
# Format: binding
# Assay Setup: surface plasmon resonance (SPR); read-out: WDR5 binding affinity (KD)
Readout: Kd
# include the unit after the value

Exercise: Identify the reported Kd for the following entry. C[C@@H]1CN(c2cc(F)c(-c3ccc(C(N)=O)c(F)c3)cc2NC(=O)c2c[nH]c(=O)cc2C(F)(F)F)C[C@H](C)N1C [Example 551]
Solution: 0.6 nM

Exercise: Identify the reported Kd for the following entry. C[C@@H]1CN(c2cc(F)c(-c3cnc(N4CCOCC4)nc3)cc2NC(=O)c2cc(N)c(F)cc2C(F)(F)F)C[C@H](C)N1C [Example 502]
Solution: 1.15 nM

Exercise: Identify the reported Kd for the following entry. C[C@@H]1CN(c2cc(F)c(-c3csc(C(=O)N4CCOCC4)n3)cc2NC(=O)c2cn(C)c(=O)cc2C(F)(F)F)C[C@H](C)N1C [Example 527]
Solution: 5.66 nM

====

# Target System: WDR5 (Homo sapiens (Human), UniProt P61964)
# Protocol Notes: Surface Plasmon Resonance (SPR) assay, KD and residence time
# Assay type: binding
# Assay Setup: surface plasmon resonance (SPR); read-out: WDR5 binding affinity (KD)
# Procedure: (i) Surface Plasmon Resonance (SPR) Assay The lifetime of a drug on its target is determined by two rate constants: the association rate constant (kon) and the dissociation rate constant (koff). […] Drug-target residence time is defined as the reciprocal of koff (τ=1/koff), making the residence time a parameter that is easily measured by routine in vitro assay methods.
Readout: Kd (nM)
Answer in nM, number only, no unit symbol.

Exercise: Recall the reported Kd of C[C@@H]1CN(c2cc(F)c(-c3cc(C(N)=O)c(F)cc3F)cc2NC(=O)c2c[nH]c(=O)cc2C(F)F)C[C@H](C)N1C on WDR5 (Homo sapiens (Human), UniProt P61964) and write it down.
Solution: 11.9

Exercise: Recall the reported Kd of CC1CN(c2cc(F)c(-c3cccc(N4CCOCC4)n3)cc2NC(=O)c2c[nH]c(=O)cc2C(F)(F)F)CCN1C (stereo in doubt) on WDR5 (Homo sapiens (Human), UniProt P61964) and write it down.
Solution: 1.18

Exercise: Recall the reported Kd of CC1CN(c2cc(F)c(-c3ccc(C(N)=O)c(F)c3F)cc2NC(=O)c2ccc(F)cc2C(F)(F)F)CCN1C (stereo in doubt) on WDR5 (Homo sapiens (Human), UniProt P61964) and write it down.
Solution: 18.3

====

# Target System: WDR5 (Homo sapiens (Human), UniProt P61964)
# Protocol Notes: Surface Plasmon Resonance (SPR) assay, KD and residence time
# Format: binding
# Assay Setup: surface plasmon resonance (SPR); read-out: WDR5 binding affinity (KD)
Readout: pKd
Remember the convention: pKd equals -log10 of concentration in molar.

Exercise: Identify the reported pKd for the following entry. C[C@@H]1CN(c2cc(F)c(-c3csc(CN4CCOCC4)n3)cc2NC(=O)c2cn(C)c(=O)cc2C(F)F)C[C@H](C)N1C
Solution: 7.97

Exercise: Identify the reported pKd for the following entry. CNC(=O)c1ccc(-c2cc(NC(=O)c3cn(C)c(=O)cc3C(F)F)c(N3CCN(C)C(C)C3)cc2F)cc1F (stereo in doubt)
Solution: 8.46

Exercise: Identify the reported pKd for the following entry. CN1CC[C@@H]2CN(c3cc(F)c(-c4cnc(N5CCOCC5)nc4)cc3NC(=O)c3c[nH]c(=O)cc3C(F)(F)F)C[C@@H]21 (stereo in doubt)
Solution: 7.62

Exercise: Identify the reported pKd for the following entry. CC(C)N(C)[C@@H]1CCN(c2cc(F)c(-c3cnc(N4CCOCC4)nc3)cc2NC(=O)c2c[nH]c(=O)cc2C(F)(F)F)C1
Solution: 6.76

Exercise: Identify the reported pKd for the following entry. C[C@@H]1CN(c2cc(F)c(-c3nc(C#N)cs3)cc2NC(=O)c2c[nH]c(=O)cc2C(F)(F)F)C[C@H](C)N1C
Solution: 8.53

Exercise: Identify the reported pKd for the following entry. C[C@@H]1CN(c2cc(F)c(C3=CCN(c4ncc(C#N)cn4)C3)cc2NC(=O)c2c[nH]c(=O)cc2C(F)(F)F)C[C@H](C)N1C
Solution: 8.76

====

# Target System: UniProt P61964
# Protocol Notes: Surface Plasmon Resonance (SPR) assay, KD and residence time
# Type: binding
# Assay Setup: surface plasmon resonance (SPR) assay; read-out: WDR5 binding affinity (KD)
Please respond with reported pKd for every item in the list.
Remember the convention: pKd equals -log10 of concentration in molar.

Exercise: Identify the reported pKd for the following entry. C[C@@H]1CN(c2cc(F)c(C3=CCN(C(=O)Oc4ccccc4)CC3)cc2NC(=O)c2c[nH]c(=O)cc2C(F)(F)F)C[C@H](C)N1C [Example 288]
Solution: 8.95

Exercise: Identify the reported pKd for the following entry. C[C@@H]1CN(c2cc(F)c(-c3ccc(N4CCOCC4)cc3)cc2NC(=O)c2cn(C)c(=O)cc2C(F)(F)F)C[C@H](C)N1C [Example 204]
Solution: 7.86

Exercise: Identify the reported pKd for the following entry. C[C@@H]1CN(c2cc(F)c(-c3cnc(O)c(C#N)c3)cc2NC(=O)c2c[nH]c(=O)cc2C(F)(F)F)C[C@H](C)N1C [Example 123]
Solution: 8.01

Exercise: Identify the reported pKd for the following entry. C[C@@H]1CN(c2cc(F)c(-c3cnc4c(c3)OCCO4)cc2NC(=O)c2c[nH]c(=O)cc2C(F)(F)F)C[C@H](C)N1C [Example 223]
Solution: 8.79

Exercise: Identify the reported pKd for the following entry. Cc1cc(C#N)ncc1-c1cc(NC(=O)c2c[nH]c(=O)cc2C(F)(F)F)c(N2C[C@@H](C)N(C)[C@@H](C)C2)cc1F [Example 269]
Solution: 8.06

Exercise: Identify the reported pKd for the following entry. CC1CN(c2cc(F)c(-c3cnc(N4CCOCC4)nc3)cc2NC(=O)c2ccc(F)cc2C(F)(F)F)CCN1C (stereo in doubt) [Example 299]
Solution: 9.24

Exercise: Identify the reported pKd for the following entry. C[C@@H]1CN(c2cc(F)c(-c3cnc(N4CCOCC4)nc3)cc2NC(=O)c2cc(Cl)cc(Cl)c2)C[C@H](C)N1C [Example 76]
Solution: 8.68

Exercise: Identify the reported pKd for the following entry. Cc1nc(C(F)(F)F)c(C(=O)Nc2cc(-c3cnc(N4CCOCC4)nc3)c(F)cc2N2CCN(C)C(C)C2)s1 (stereo in doubt) [Example 199]
Solution: 7.63

Exercise: Identify the reported pKd for the following entry. C[C@@H]1CN(c2cc(F)c(-c3cnc(N4CCOCC4)nc3)cc2NC(=O)c2cn(C)c(=O)cc2C(F)(F)F)C[C@H](C)N1C [Example 93]
Solution: 8.66

Exercise: Identify the reported pKd for the following entry. C[C@@H]1CN(c2cc(F)c(-c3cnc(N4CCOCC4)nc3)cc2NC(=O)c2cccc(F)c2C(F)(F)F)C[C@H](C)N1C [Example 295]
Solution: 7.95

Exercise: Identify the reported pKd for the following entry. C[C@@H]1CN(c2cc(F)c(-c3cnc(N4CCOCC4)nc3)cc2NC(=O)c2scnc2C(F)(F)F)C[C@H](C)N1C [Example 188]
Solution: 7.03

Exercise: Identify the reported pKd for the following entry. C[C@@H]1CN(c2cc(F)c(-c3cncc(Cl)c3)cc2NC(=O)c2c[nH]c(=O)cc2C(F)(F)F)C[C@H](C)N1C [Example 206]
Solution: 8.41

Exercise: Identify the reported pKd for the following entry. CC(C)COC(=O)N1CC=C(c2cc(NC(=O)c3c[nH]c(=O)cc3C(F)(F)F)c(N3C[C@@H](C)N(C)[C@@H](C)C3)cc2F)CC1 [Example 254]
Solution: 8.48

Exercise: Identify the reported pKd for the following entry. C[C@@H]1CN(c2cc(F)c(-c3cnc(N4CCOCC4)nc3)cc2NC(=O)c2cccc(Cl)c2F)C[C@H](C)N1C [Example 140]
Solution: 7.73

Exercise: Identify the reported pKd for the following entry. C[C@@H]1CN(c2cc(F)c(-c3cccc(OCC4CC4)c3)cc2NC(=O)c2c[nH]c(=O)cc2C(F)(F)F)C[C@H](C)N1C [Example 125]
Solution: 7.96

Exercise: Identify the reported pKd for the following entry. CC(C)COc1ncc(-c2cc(NC(=O)c3c[nH]c(=O)cc3C(F)(F)F)c(N3C[C@@H](C)N(C)[C@@H](C)C3)cc2F)cc1Cl [Example 91]
Solution: 8.35

Exercise: Identify the reported pKd for the following entry. C[C@@H]1CN(c2cc(F)c(C3=CCN(c4ncc(Cl)cn4)CC3)cc2NC(=O)c2c[nH]c(=O)cc2C(F)(F)F)C[C@H](C)N1C [Example 275]
Solution: 8.81

Exercise: Identify the reported pKd for the following entry. C[C@@H]1CN(c2cc(F)c(-c3cncc(OCC4CC4)c3)cc2NC(=O)c2c[nH]c(=O)cc2C(F)(F)F)C[C@H](C)N1C [Example 156]
Solution: 8.06

Exercise: Identify the reported pKd for the following entry. COCCOc1ccc(-c2cc(NC(=O)c3c[nH]c(=O)cc3C(F)(F)F)c(N3C[C@@H](C)N(C)[C@@H](C)C3)cc2F)cn1 [Example 84]
Solution: 9.47

Exercise: Identify the reported pKd for the following entry. CC(C)Oc1ncc(-c2cc(NC(=O)c3c[nH]c(=O)cc3C(F)(F)F)c(N3CCN(C)C(C)C3)cc2F)cn1 (stereo in doubt) [Example 240]
Solution: 8.65

Exercise: Identify the reported pKd for the following entry. C[C@@H]1CN(c2cc(F)c(-c3cccc(CN(C)C4COC4)c3)cc2NC(=O)c2c[nH]c(=O)cc2C(F)(F)F)C[C@H](C)N1C [Example 118]
Solution: 8.34

Exercise: Identify the reported pKd for the following entry. C[C@@H]1CN(c2cc(F)c(-c3cnc(N4CCOCC4)nc3)cc2NC(=O)c2cc(F)ccc2C(F)(F)F)C[C@H](C)N1C [Example 88]
Solution: 7.62

Exercise: Identify the reported pKd for the following entry. C[C@@H]1CN(c2cc(F)c(C3CCN(C(=O)C(C)(C)C)CC3)cc2NC(=O)c2c[nH]c(=O)cc2C(F)(F)F)C[C@H](C)N1C [Example 244]
Solution: 8.71
